Origin of measurements: the supplement of paper PMC6555819

# Test system: PPARg homodimer (NR concentration 180 nM)
# experiment: PBM binding z-score (relative to random genomic background probes); higher = stronger binding; sequences stand for … in GC…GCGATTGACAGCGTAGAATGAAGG
Lab note: compare PBM binding z-score against 1. Equal or greater, write 1. Smaller, write -1.

Hi, just wondering whether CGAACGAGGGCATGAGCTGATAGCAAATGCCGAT shows PBM binding z-score of 1 or higher.
-1

Please tell me: is the sequence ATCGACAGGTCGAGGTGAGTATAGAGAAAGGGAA at or over 1 in terms of PBM binding z-score?
-1

Quick check: does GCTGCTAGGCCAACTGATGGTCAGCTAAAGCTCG have PBM binding z-score greater than or equal to 1?
-1

Hi, just wondering whether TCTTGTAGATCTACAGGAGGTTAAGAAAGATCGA shows PBM binding z-score of 1 or higher.
-1

Quick check, PBM binding z-score >= 1? GTACCAAGGTGAATAGGGCGTTGATGAGTAGGCG
-1

Check this sequence for PBM binding z-score at or above 1: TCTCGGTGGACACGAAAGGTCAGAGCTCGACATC
1

Tell me whether PBM binding z-score is at least 1 here: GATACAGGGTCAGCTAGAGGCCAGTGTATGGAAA
1

State whether the measured PBM binding z-score reaches 1, counting equality as reaching it, for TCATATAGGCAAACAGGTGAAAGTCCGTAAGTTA
-1

Item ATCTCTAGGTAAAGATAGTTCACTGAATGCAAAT with PBM binding z-score of 1 or above?
1

Does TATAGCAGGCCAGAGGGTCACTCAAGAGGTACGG have a reported PBM binding z-score of at least 1?
1

Would you say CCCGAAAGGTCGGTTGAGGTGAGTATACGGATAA shows PBM binding z-score at minimum 1?
1

In plain terms: is recorded PBM binding z-score at least 1 for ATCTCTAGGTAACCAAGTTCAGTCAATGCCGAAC ?
1

# check: PBM binding z-score of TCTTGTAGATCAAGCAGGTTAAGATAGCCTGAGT is greater than or equal to 1
-1

Determine whether this sequence has PBM binding z-score no lower than 1: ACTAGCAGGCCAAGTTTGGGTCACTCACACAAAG
-1

hey, is PBM binding z-score for this one >= 1? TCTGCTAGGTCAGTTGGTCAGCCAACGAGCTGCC
-1

Form field: PBM binding z-score at least 1? Entry: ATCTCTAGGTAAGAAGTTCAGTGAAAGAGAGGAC
1

Identify whether the reported PBM binding z-score of the following sequence is 1 or greater: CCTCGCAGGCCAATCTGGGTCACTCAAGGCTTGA
-1

Decide: PBM binding z-score of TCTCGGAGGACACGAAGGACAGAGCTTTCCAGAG >= 1?
-1

For this sequence, is measured PBM binding z-score 1 or higher? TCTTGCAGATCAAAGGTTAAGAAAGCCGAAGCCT
-1

Can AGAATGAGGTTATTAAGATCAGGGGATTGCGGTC be said to have PBM binding z-score at or above 1?
-1

Check this sequence for PBM binding z-score at or above 1: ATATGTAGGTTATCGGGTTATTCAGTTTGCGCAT
1

Check this sequence for PBM binding z-score at or above 1: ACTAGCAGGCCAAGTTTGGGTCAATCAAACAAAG
-1

Say whether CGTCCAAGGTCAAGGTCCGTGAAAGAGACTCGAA shows PBM binding z-score of 1 or more.
1

Given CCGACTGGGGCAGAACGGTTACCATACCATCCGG , state whether its PBM binding z-score is at least 1.
-1

Item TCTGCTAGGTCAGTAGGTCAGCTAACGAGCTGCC with PBM binding z-score of 1 or above?
-1

* * *

# Tested on: PPARg DBDmut IVT, anti-PPARg (DBD mutation: PPARg1 K132A/R137A, NR concentration 270 nM)
# experiment: PBM binding z-score (relative to random genomic background probes); higher = stronger binding; sequences stand for … in GC…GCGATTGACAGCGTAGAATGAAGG
measure_name: PBM binding z-score
Number only, no unit.

Can you share its PBM binding z-score? I mean this sequence: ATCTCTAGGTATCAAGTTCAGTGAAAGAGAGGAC
1.12

Return reported PBM binding z-score; argument: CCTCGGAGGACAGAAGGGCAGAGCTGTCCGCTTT
-1.74

Sample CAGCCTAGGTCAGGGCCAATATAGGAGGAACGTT — what was its PBM binding z-score?
-1.23

Looking for the measured PBM binding z-score of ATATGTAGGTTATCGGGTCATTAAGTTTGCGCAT , can you help?
2.29

Requested read-out: PBM binding z-score. Entry: ACTGACAGGTGAGTGAAGGTAACTCAGCTGGACG
-0.257

Quick one: PBM binding z-score of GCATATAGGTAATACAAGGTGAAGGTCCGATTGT ?
0.932

* * *

# System: PPARg:RXRa IVT, anti-PPARg (NR concentration 270 nM, RXRa partner concentration 90 nM)
# experiment: PBM binding z-score (relative to random genomic background probes); higher = stronger binding; sequences stand for … in GC…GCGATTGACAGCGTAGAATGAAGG
Kindly state PBM binding z-score for each of the entries shown.

Requested read-out: PBM binding z-score. Entry: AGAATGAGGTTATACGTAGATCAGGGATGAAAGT
2.18

// returns reported PBM binding z-score for input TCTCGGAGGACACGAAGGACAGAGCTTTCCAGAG
0.0636

PBM binding z-score lookup needed for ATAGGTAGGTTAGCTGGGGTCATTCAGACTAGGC , thanks.
2.9

Please look up its PBM binding z-score: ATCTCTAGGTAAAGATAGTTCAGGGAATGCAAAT
1.37

Using the record for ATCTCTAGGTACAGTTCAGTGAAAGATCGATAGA , report its PBM binding z-score.
0.726

Entry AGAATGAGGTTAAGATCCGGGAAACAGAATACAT : reported PBM binding z-score = ?
2.71

// returns reported PBM binding z-score for input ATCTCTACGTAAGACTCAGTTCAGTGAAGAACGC
0.118

Entry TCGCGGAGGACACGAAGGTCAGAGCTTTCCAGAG has what PBM binding z-score?
0.577

Reported PBM binding z-score for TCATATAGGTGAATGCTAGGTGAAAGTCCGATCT : what is it?
5.78

Value lookup for PBM binding z-score; key = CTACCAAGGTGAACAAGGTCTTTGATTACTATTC
2.75

Any idea what PBM binding z-score was measured for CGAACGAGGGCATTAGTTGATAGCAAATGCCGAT ?
1.35

Please give the measured PBM binding z-score for this sequence: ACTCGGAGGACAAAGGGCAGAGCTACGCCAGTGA
0.678

* * *

Record form. Attribute: PBM binding z-score. Fill in for each entry.
# Test system: LXRa:RXRa (NR concentration 270 nM, RXRa partner concentration 90 nM)
# experiment: PBM binding z-score (relative to random genomic background probes); higher = stronger binding; sequences stand for … in GC…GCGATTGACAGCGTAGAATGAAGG
Write no unit; give the number alone.

Name the recorded PBM binding z-score for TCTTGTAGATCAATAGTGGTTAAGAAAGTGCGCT .
0.37

For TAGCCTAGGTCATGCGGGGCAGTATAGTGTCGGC , what is its reported PBM binding z-score?
3.24

Quick check: PBM binding z-score of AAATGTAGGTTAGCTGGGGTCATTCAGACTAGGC ?
5.93

# PBM binding z-score lookup, item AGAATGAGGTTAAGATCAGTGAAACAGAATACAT
3.08

So what's the measured PBM binding z-score for this one? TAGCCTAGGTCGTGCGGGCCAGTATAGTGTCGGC
-0.0321

PBM binding z-score lookup needed for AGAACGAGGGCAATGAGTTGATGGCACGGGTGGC , thanks.
0.254

PBM binding z-score for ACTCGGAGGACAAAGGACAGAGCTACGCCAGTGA ?
-0.373

Could you share which PBM binding z-score value was measured for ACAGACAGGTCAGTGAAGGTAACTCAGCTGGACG ?
1.83

Given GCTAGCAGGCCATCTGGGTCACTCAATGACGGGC , state its recorded PBM binding z-score.
-0.178

Tell me the measured PBM binding z-score of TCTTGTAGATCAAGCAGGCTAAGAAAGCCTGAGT , please.
-0.307

Quick one: PBM binding z-score for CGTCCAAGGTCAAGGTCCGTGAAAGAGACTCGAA ?
5.22

Item under review: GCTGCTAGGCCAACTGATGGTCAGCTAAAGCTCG . Reported PBM binding z-score?
-0.78

Given the entry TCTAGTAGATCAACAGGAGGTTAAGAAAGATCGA , report its measured PBM binding z-score.
1.07

Fill blank: measured PBM binding z-score of the sequence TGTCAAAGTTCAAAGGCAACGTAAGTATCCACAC is ____.
6.1

Quick one: PBM binding z-score for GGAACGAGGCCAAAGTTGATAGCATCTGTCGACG ?
-0.0376

Which PBM binding z-score is listed for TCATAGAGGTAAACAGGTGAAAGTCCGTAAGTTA ?
0.794

Name the recorded PBM binding z-score for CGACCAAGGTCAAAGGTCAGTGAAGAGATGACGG .
6.8

Which PBM binding z-score is reported for this sequence? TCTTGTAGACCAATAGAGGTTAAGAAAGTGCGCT
3.66

Quick check: PBM binding z-score of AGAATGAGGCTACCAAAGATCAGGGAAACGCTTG ?
0.883

For the sequence shown here, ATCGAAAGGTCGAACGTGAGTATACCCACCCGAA , give the reported PBM binding z-score.
3.99

Look at this sequence and give its reported PBM binding z-score. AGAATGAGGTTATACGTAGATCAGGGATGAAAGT
1.9

May I ask what PBM binding z-score has been recorded for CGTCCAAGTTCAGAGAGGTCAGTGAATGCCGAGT ?
3.64

Reported PBM binding z-score for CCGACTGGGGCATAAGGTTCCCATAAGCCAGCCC : what is it?
-0.436

Look up PBM binding z-score for this sequence: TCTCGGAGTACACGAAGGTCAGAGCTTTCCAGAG
0.884

What value of PBM binding z-score has been recorded for this entry: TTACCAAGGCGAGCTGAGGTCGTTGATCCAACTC
0.298

Need PBM binding z-score, item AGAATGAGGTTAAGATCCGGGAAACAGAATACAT
1.75

Recorded PBM binding z-score of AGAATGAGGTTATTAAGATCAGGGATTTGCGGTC , please.
1.59

I am curious: what PBM binding z-score value has been reported for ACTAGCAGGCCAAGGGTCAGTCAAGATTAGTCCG ?
1.16

Please report the recorded PBM binding z-score for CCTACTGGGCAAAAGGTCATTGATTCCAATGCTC .
5.09

# PBM binding z-score lookup, item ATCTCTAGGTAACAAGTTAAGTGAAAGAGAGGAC
0.557

For the sequence shown here, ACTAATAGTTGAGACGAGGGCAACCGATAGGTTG , give the reported PBM binding z-score.
0.527

Would you kindly share the measured PBM binding z-score for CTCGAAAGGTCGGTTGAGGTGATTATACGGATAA ?
1.84

Fill in: PBM binding z-score of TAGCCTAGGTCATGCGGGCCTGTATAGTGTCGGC is ___
3.24

Request the reported PBM binding z-score associated with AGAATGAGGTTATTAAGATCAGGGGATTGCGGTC
1.31

Using the record for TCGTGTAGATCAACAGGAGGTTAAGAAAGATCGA , report its PBM binding z-score.
1.13

Which PBM binding z-score is reported for this sequence? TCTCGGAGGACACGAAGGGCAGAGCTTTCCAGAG
-0.265

What value of PBM binding z-score has been recorded for this entry: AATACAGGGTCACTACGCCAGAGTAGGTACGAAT
4.99

Requested read-out: PBM binding z-score. Entry: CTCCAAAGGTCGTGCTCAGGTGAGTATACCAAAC
4.42

Give the measured PBM binding z-score of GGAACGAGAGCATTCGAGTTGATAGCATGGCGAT .
-1.05

What value of measured PBM binding z-score is listed for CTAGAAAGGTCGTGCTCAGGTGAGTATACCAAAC ?
3.64

Tell me the measured PBM binding z-score of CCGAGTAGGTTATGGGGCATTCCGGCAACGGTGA , please.
0.227

Reported PBM binding z-score for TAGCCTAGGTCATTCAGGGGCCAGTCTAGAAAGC : what is it?
3.65

GET /values?readout=PBM binding z-score&item= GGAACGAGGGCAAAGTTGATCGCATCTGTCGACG
0.829

Requested field: PBM binding z-score. Item: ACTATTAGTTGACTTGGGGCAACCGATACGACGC
0.287

What value of PBM binding z-score has been reported for the following sequence? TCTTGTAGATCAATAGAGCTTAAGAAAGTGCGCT
-0.425

Quick one: PBM binding z-score of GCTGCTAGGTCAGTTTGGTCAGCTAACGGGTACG ?
0.563

What measured PBM binding z-score goes with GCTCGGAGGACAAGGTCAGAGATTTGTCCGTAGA ?
1.62

Requested read-out: PBM binding z-score. Entry: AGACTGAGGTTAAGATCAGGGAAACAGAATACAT
1.75

Using the record for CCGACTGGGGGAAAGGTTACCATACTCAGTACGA , report its PBM binding z-score.
2.38

Which PBM binding z-score value is on record for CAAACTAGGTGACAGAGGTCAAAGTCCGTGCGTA ?
5.47

Endpoint output: PBM binding z-score of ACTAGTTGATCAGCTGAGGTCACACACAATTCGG . Value?
2.93
